Sourced from patent US7250410B2

target: PDE1; assay: Selectivity: inhibition of PDE1, radioenzymatic phosphodiesterase assay; details: Table 4 Selectivity
Reported IC50 values for the following compounds.

Q) So what does the record say about IC50 for CCOc1cc2c(cc1OCC)C(CC)C(=O)N(C)N=C2c1cc2ccccc2s1 (centres unmarked) [IIIbb] ?
A) 14 µM

Q) For the compound COc1cc2c(cc1OC)C(c1cc3ccccc3s1)=NN(C)C(=O)C2 [IIIab] , what IC50 is on record?
A) 3.81 µM

---

system: PDE4; assay: Inhibition of PDE4, radioenzymatic phosphodiesterase assay; type: biochemical, bovine; settings: Table 3, formula (II); compound at 10 μM
parameterMeasured: PDE4 percentage inhibition at 10 μM (%)
Provide the reading as a plain figure in %.

INSERT INTO results (compound, unittag, result) VALUES
  ('COc1cc2c(cc1OC)N(C)C(=O)CN=C2c1ccc(N(C)C)cc1', '%', 7.9);

Q) # get_value(readout='PDE4 percentage inhibition at 10 μM', item= C=CCC1N=C(c2ccccc2)c2cc(OC)c(OC)cc2N(CC)C1=O (centres unmarked) )
A) 38.8

Q) Would you mind telling me what PDE4 percentage inhibition at 10 μM value was observed for COc1ccc2c(c1)N(C)C(=O)CN=C2c1ccccc1 ?
A) 16

Q) I am curious: what PDE4 percentage inhibition at 10 μM value has been reported for CCN1C(=O)C(Cc2cccc(CN)c2)N=C(c2ccccc2)c2cc(OC)c(OC)cc21 (centres unmarked) ?
A) 18

Q) Request the reported PDE4 percentage inhibition at 10 μM associated with COc1cc2c(cc1OC)N(C)C(=O)CN=C2c1ccccc1OC
A) 20

Q) What value of PDE4 percentage inhibition at 10 μM has been recorded for this entry: CCN1C(=O)C(CC(N)=O)N=C(c2ccccc2)c2cc(OC)c(OC)cc21 (centres unmarked)
A) 9.4

Q) # lookup: PDE4 percentage inhibition at 10 μM of CCN1C(=O)CN=C(c2cccc(C#Cc3ccccc3)c2)c2cc(OC)c(OC)cc21
A) 46.1

Q) Could you tell me which PDE4 percentage inhibition at 10 μM is on file for COc1cc2c(cc1OC)N(C)C(=O)CN=C2c1ccco1 ?
A) 36

Q) Give its PDE4 percentage inhibition at 10 μM value. Item: COc1cc2c(cc1OC)N(C)C(=O)CN=C2c1cc(C(F)(F)F)cc(C(F)(F)F)c1
A) 11.7

Q) Item COc1cc2c(cc1OC)N(C)C(=O)CN=C2c1ccc(C(C)=O)cc1 has what recorded PDE4 percentage inhibition at 10 μM?
A) 39

Q) Entry COc1cc2c(cc1OC)N(C)C(=O)CN=C2c1ccncc1 has what PDE4 percentage inhibition at 10 μM?
A) 3.4
